Each record here notes measured CC50 at 2 days.
experiment: Cytotoxicity (CC50) in mock-infected H1-HeLa cells, XTT dye reduction; type: cell-based, human; conditions: human, H1-HeLa cells, mock-infected; line of HRV-14

Would you please look over these solved cases?
smiles_code	obs_value
CCOC(=O)/C=C/[C@H](CCC(N)=O)NC(=O)[C@H](Cc1ccc(F)c(F)c1)n1cccc(NC(=O)OCc2ccccc2)c1=O	> 10 µM
O=C1OCC/C1=C\[C@H](C[C@@H]1CCNC1=O)NC(=O)[C@H](Cc1ccc(F)cc1)n1cccc(NC(=O)c2cc(Cl)on2)c1=O	> 10 µM

Now look at this entry.
Short answer for CCOC(=O)/C=C/[C@H](C[C@@H]1CCNC1=O)NC(=O)[C@H](Cc1ccccc1)n1ccc2cc[nH]c2c1=O : CC50 at 2 days was > 10 µM

----------
tested on: strains of human rhinovirus (HRV); assay: Antirhinoviral H1-HeLa cell culture assay (XTT cell protection, EC50), other HRV strains; assay type: cell-based, human rhinovirus in H1-HeLa cells; conditions: Human rhinovirus sp., HRV11, H1-HeLa, HRV-11; read-out: EC50
Lab note: anything with EC50 below 6 nM is marked 1.0; values at 6 nM or higher are marked 0.0.

Recorded results for 2 molecules are shown here.
smiles_code	group
C#CC[C@@H](C(=O)N[C@H](/C=C/C(=O)OC1CCC1)C[C@@H]1CCNC1=O)n1cccc(NC(=O)c2cc(C)on2)c1=O	0.0
CC[C@@H](C(=O)N[C@H](/C=C/C(=O)OCc1ccccc1)C[C@@H]1CCNC1=O)n1cccc(NC(=O)c2cc(C)on2)c1=O	0.0

[Q] Problem: For the molecule C#CC[C@@H](C(=O)N[C@H](/C=C/C(=O)OCc1ccccc1)C[C@@H]1CCNC1=O)n1cccc(NC(=O)c2cc(C)on2)c1=O , is EC50 under 6 nM?
[A] 0.0

[Q] Problem: For the molecule CCOC(=O)/C=C/[C@H](C[C@@H]1CCNC1=O)NC(=O)[C@H](CC)n1cccc(NC(=O)c2cc(C)on2)c1=O , is EC50 under 6 nM?
[A] 1.0

[Q] Problem: For the molecule Cc1cc(C(=O)Nc2cccn([C@@H](Cc3ccc(F)c(F)c3)C(=O)N[C@H](/C=C/C(=O)OC(C)(C)C)C[C@@H]3CCNC3=O)c2=O)no1 , is EC50 under 6 nM?
[A] 1.0

[Q] Problem: For the molecule CCOC(=O)/C=C/[C@H](C[C@@H]1CCNC1=O)NC(=O)[C@H](Cc1ccc(F)c(F)c1)n1cccc(NC(=O)c2cc(C)on2)c1=O , is EC50 under 6 nM?
[A] 1.0

[Q] Problem: For the molecule CC[C@@H](C(=O)N[C@H](/C=C/C(=O)OC1CCC1)C[C@@H]1CCNC1=O)n1cccc(NC(=O)c2cc(C)on2)c1=O , is EC50 under 6 nM?
[A] 0.0

[Q] Problem: For the molecule Cc1cc(C(=O)Nc2cccn([C@@H](Cc3ccc(F)c(F)c3)C(=O)N[C@H](/C=C/C(=O)OC(C)C)C[C@@H]3CCNC3=O)c2=O)no1 , is EC50 under 6 nM?
[A] 1.0

[Q] Problem: For the molecule C#CC[C@@H](C(=O)N[C@H](/C=C/C(=O)OCC)C[C@@H]1CCNC1=O)n1cccc(NC(=O)c2cc(C)on2)c1=O , is EC50 under 6 nM?
[A] 1.0

[Q] Problem: For the molecule Cc1cc(C(=O)Nc2cccn([C@@H](Cc3ccc(F)c(F)c3)C(=O)N[C@H](/C=C/C(=O)OC3CCC3)C[C@@H]3CCNC3=O)c2=O)no1 , is EC50 under 6 nM?
[A] 1.0

Cited source: patent US6514997B2
